Target: OsWOX13 (Oryza sativa, UniProt Q5QMM3 1-267)
Sequence: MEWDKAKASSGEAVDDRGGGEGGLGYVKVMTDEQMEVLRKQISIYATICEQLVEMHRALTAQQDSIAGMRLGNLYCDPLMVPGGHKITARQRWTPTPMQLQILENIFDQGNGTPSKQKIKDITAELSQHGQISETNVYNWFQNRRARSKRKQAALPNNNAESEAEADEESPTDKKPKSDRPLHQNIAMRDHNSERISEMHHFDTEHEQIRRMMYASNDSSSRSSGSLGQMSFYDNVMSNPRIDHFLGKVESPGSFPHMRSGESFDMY
Assay: protein-binding microarray (RPBM); PBS, 2% BSA, 51.3 ng/ul salmon testes DNA, 50 uM zinc acetate, 200 nM TF, 25 C, 1 h; high values mean tight binding
Conditions: protein: recombinant; tags: N-terminal polyhistidine and DsRed monomer fusion (pET32a); label: CyDye5-dUTP incorporated in the synthesized complementary strand; 3' TTTTT single-stranded linker to array surface; dsDNA, one strand shown
In all, about 35,000 sequences were measured (“fluorescence intensity (a.u.)”: median about 10,000, highest 2% from about 52,000 on). The entries come from a sample that favours the highest values as a whole.
parameter_measured: binding signal

residue_string | target_or_test_system | parameter_measured | experimental_result
ATGAAAGGAGTTGATTTGCACCGGTTTTCAAAGATGAAAACGGAGTCACCTAGTGCAG | OsWOX13 (Oryza sativa, UniProt Q5QMM3 1-267) | binding signal | 3470 fluorescence intensity (a.u.)
GCTAATACTTAATTAATCACGCGCTAATAGACCGCTCCGTCGGAGTCACCTAGTGCAG | OsWOX13 (Oryza sativa, UniProt Q5QMM3 1-267) | binding signal | 24500 fluorescence intensity (a.u.)
TTGATTAATTTATTTATAGTTTTGTGAAAGTTTGCGCCGTCGGAGTCACCTAGTGCAG | OsWOX13 (Oryza sativa, UniProt Q5QMM3 1-267) | binding signal | 57900 fluorescence intensity (a.u.)
TCGTTGTAATAATTTGATTTCTTTTGCAGACGGTCTTTATCGGAGTCACCTAGTGCAG | OsWOX13 (Oryza sativa, UniProt Q5QMM3 1-267) | binding signal | 5300 fluorescence intensity (a.u.)
AGATAATTGTGAAATAATTATATTGCGATTTGATAAAGTACGGAGTCACCTAGTGCAG | OsWOX13 (Oryza sativa, UniProt Q5QMM3 1-267) | binding signal | 14700 fluorescence intensity (a.u.)
AAGATTGGGCTGTTCATTAATCAAATTATTCTATGTGTCTCGGAGTCACCTAGTGCAG | OsWOX13 (Oryza sativa, UniProt Q5QMM3 1-267) | binding signal | 11900 fluorescence intensity (a.u.)
TACATCCCTACTAATTGTGTCATGTATCAATAATGATATGCGGAGTCACCTAGTGCAG | OsWOX13 (Oryza sativa, UniProt Q5QMM3 1-267) | binding signal | 3560 fluorescence intensity (a.u.)
AATTGATTATTCCTAACAACATTCCGCGGATTAATTTTCTCGGAGTCACCTAGTGCAG | OsWOX13 (Oryza sativa, UniProt Q5QMM3 1-267) | binding signal | 15500 fluorescence intensity (a.u.)
CTCAAAAGTTTGGGTTGATCGATCATTTGCCTACCGAAACCGGAGTCACCTAGTGCAG | OsWOX13 (Oryza sativa, UniProt Q5QMM3 1-267) | binding signal | 65500 fluorescence intensity (a.u.)
AATAAATTGTGTGGAAATTTAGCTTGCCCAATCAGATTGACGGAGTCACCTAGTGCAG | OsWOX13 (Oryza sativa, UniProt Q5QMM3 1-267) | binding signal | 16000 fluorescence intensity (a.u.)
ACTTAATTAATTACGTGTTAATGGACTGCTCCGTTTTCCGCGGAGTCACCTAGTGCAG | OsWOX13 (Oryza sativa, UniProt Q5QMM3 1-267) | binding signal | 65500 fluorescence intensity (a.u.)
GATGATTGATTGGGTTGGTTGGAACGTGCGATGGAATGATCGGAGTCACCTAGTGCAG | OsWOX13 (Oryza sativa, UniProt Q5QMM3 1-267) | binding signal | 65400 fluorescence intensity (a.u.)
ATTAATTACGCGCTAATCGTTGCTCCGTTTTCCGTGCAAACGGAGTCACCTAGTGCAG | OsWOX13 (Oryza sativa, UniProt Q5QMM3 1-267) | binding signal | 11400 fluorescence intensity (a.u.)
TTGATTGCGAATGATTGGAGCTGGTTGCTGTTGCTAGATCCGGAGTCACCTAGTGCAG | OsWOX13 (Oryza sativa, UniProt Q5QMM3 1-267) | binding signal | 57800 fluorescence intensity (a.u.)
TATGATTGATATCCACGAATTGAAGAAGAAGTTGCATTGCCGGAGTCACCTAGTGCAG | OsWOX13 (Oryza sativa, UniProt Q5QMM3 1-267) | binding signal | 55300 fluorescence intensity (a.u.)
GGTTTAAATTTTAAAAGTTTGATCAAATATTATCCTAAACCGGAGTCACCTAGTGCAG | OsWOX13 (Oryza sativa, UniProt Q5QMM3 1-267) | binding signal | 4900 fluorescence intensity (a.u.)
TTCTAATTAATCACGCGTTAATGGACCGCTCCGTTTTCCGCGGAGTCACCTAGTGCAG | OsWOX13 (Oryza sativa, UniProt Q5QMM3 1-267) | binding signal | 42300 fluorescence intensity (a.u.)
GGATAATGATTTGACATTGATTGCGGTCTCGTTATTTTCTCGGAGTCACCTAGTGCAG | OsWOX13 (Oryza sativa, UniProt Q5QMM3 1-267) | binding signal | 59500 fluorescence intensity (a.u.)
GGAAAGACAGATTGAAGAAGCTGGGGTTCAAACCCAGGATCGGAGTCACCTAGTGCAG | OsWOX13 (Oryza sativa, UniProt Q5QMM3 1-267) | binding signal | 10300 fluorescence intensity (a.u.)
